These data points were gathered from ChEMBL document CHEMBL4152278.

Tested on: Influenza A virus
assay.procedure: Antiviral activity against Influenza A virus (A/WSN/1933(H1N1)) infected in MDCK cells expressing neuraminidase H275Y mutant assessed as protection against virus-induced cytopathic effect after 48 hrs by CellTiter96 aqueous non-radioactive cell proliferation assay
Assay type: functional, organism-based
pEC50: −log10 of the molar value.
observation.type: pEC50

[[record]]
compound = "CCCCCCCC(=O)/N=C(\\N)N[C@H]1CC(C(=O)O)=C[C@@H](OC(CC)CC)[C@@H]1NC(C)=O"
recorded_number = 5.18

[[record]]
compound = "CC(=O)N[C@H]1[C@H]([C@H](O)[C@H](O)CO)OC(C(=O)O)=C[C@@H]1NC(=N)N [ZANAMIVIR]"
recorded_number = 6.82

[[record]]
compound = "COc1ccc2cc([C@H](C)C(=O)/N=C(\\N)N[C@H]3C=C(C(=O)O)O[C@@H]([C@H](O)[C@H](O)CO)[C@@H]3NC(C)=O)ccc2c1"
recorded_number = 6.05

[[record]]
compound = "CCC(CC)O[C@@H]1C=C(C(=O)O)C[C@H](N/C(N)=N/C(=O)[C@@H](C)c2ccc3cc(OC)ccc3c2)[C@H]1NC(C)=O"
recorded_number = 4.72

[[record]]
compound = "CCCCCCCC(=O)/N=C(\\N)N[C@H]1C=C(C(=O)O)O[C@@H]([C@H](O)[C@H](O)CO)[C@@H]1NC(C)=O"
recorded_number = 6.32

[[record]]
compound = "CCC(CC)O[C@@H]1C=C(C(=O)O)C[C@H](N)[C@H]1NC(C)=O [OSELTAMIVIR CARBOXYLATE]"
recorded_number = 4.59

[[record]]
compound = "CCC(CC)O[C@@H]1C=C(C(=O)O)C[C@H](NC(=N)N)[C@H]1NC(C)=O"
recorded_number = 5.68

